Test name: NCI Yeast Anticancer Drug Screen. Data for the rad50 strain (AID 155);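 further: 0% = growth of vehicle-only cultures of the same strain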
Condition description: S. cerevisiae rad50 strain growth inhibition; at 50.0 µM; hits give high values
The panel holds about 79,000 compounds, 15% with a hit somewhere; the sample as a whole holds those more often. Activity calls are given as the source filed them. No stated cut-off is given here; in the data, active means growth inhibition above about 70%; inactive means the rest.
Test readout: growth inhibition

Record excerpt, results attached:
>  <Compound>
COc1cccc2c(=O)c3c(oc12)CCC(C)C3 (stereo not drawn)

>  <growth inhibition>
-10.6% (inactive)

$$$$
>  <Compound>
CN(C)C(=S)/N=c1\ss/c(=N\C(=S)N(C)C)n1-c1ccc2c(c1)OCO2

>  <growth inhibition>
-16.1% (inactive)

$$$$
>  <Compound>
Cc1ccc2c(c1)C(OC(=O)Nc1ccccc1)CCC2 (stereo not drawn)

>  <growth inhibition>
18.1% (inactive)

$$$$
>  <Compound>
OC1CCC(C#CC#CC2CCC(O)CC2)CC1 (stereo not drawn)

>  <growth inhibition>
2.05% (inactive)

$$$$
>  <Compound>
O=C(O)C1OCOC2C(CO)OCOC12 (stereo not drawn)

>  <growth inhibition>
11.8% (inactive)

$$$$

Req: Please give the measured growth inhibition for this compound: ClC(Cl)C1OCCCO1
Resp: -32.4% (inactive)

Req: Please give the measured growth inhibition for this compound: CC1=CC(=O)N2[C@H](OC[C@@H]2C(C)C)O1
Resp: 6.4% (inactive)

Req: Please give the measured growth inhibition for this compound: CONC(CC(=O)c1ccccc1)c1ccccc1 (stereo not drawn)
Resp: 23.4% (inactive)

Req: Please give the measured growth inhibition for this compound: CC1(C)CC(=O)C2=C(C1)NC(SSC1=C(C#N)C(c3ccc(F)cc3)C3=C(CC(C)(C)CC3=O)N1)=C(C#N)C2c1ccc(F)cc1 (stereo not drawn)
Resp: -22.4% (inactive)

Req: Please give the measured growth inhibition for this compound: OC1COC(c2ccccc2)OC1C(O)C1OC(c2ccccc2)OCC1O (stereo not drawn)
Resp: 5.3% (inactive)

Req: Please give the measured growth inhibition for this compound: CC1CCCCC(=O)N1 (stereo not drawn)
Resp: 11.6% (inactive)

Req: Please give the measured growth inhibition for this compound: CC(=O)OCCC1CC2c3[nH]c4ccccc4c3CCN2C1=O (stereo not drawn)
Resp: -3.85% (inactive)

Req: Please give the measured growth inhibition for this compound: Cc1cc2nc3c(=O)[nH]c(=O)nc-3n(CCOC(=O)CCC(=O)O)c2cc1C
Resp: -8.35% (inactive)

Req: Please give the measured growth inhibition for this compound: CCCn1cnc2c(NN=O)ncnc21
Resp: -42% (inactive)

Req: Please give the measured growth inhibition for this compound: N#CCOS(=O)(=O)O
Resp: -0.6% (inactive)

Req: Please give the measured growth inhibition for this compound: CCNC(=O)Oc1cccc(NC(=O)CC)c1
Resp: 3.2% (inactive)

Req: Please give the measured growth inhibition for this compound: CCOC(=O)c1ccc(Nc2nc3cc(C(F)(F)F)ccc3nc2C(=O)OCC)cc1
Resp: -31.2% (inactive)

Req: Please give the measured growth inhibition for this compound: CN1C(=O)CC2C(=O)N(Cc3ccccc3)C(=O)C2C1=O (stereo not drawn)
Resp: 14% (inactive)

Req: Please give the measured growth inhibition for this compound: O=c1c(Br)nn(C(c2ccccc2)c2ccccc2)c(=O)n1C(c1ccccc1)c1ccccc1
Resp: 23.1% (inactive)

* * *

Test name: NCI Yeast Anticancer Drug Screen. Data for the mec2-1 strain (AID 157)
Condition description: S. cerevisiae mec2-1 strain, at 50.0 µM, hits give high values
Compounds without any hit were thinned out: in the full panel of roughly 79,000, 15% have a hit.
The threshold is inclusive: growth inhibition of exactly -10% counts as t; values below receive f.

Sample answers from the record:
>  <Compound>
C[N+](C)(C)/N=C(/c1ccccc1)C1CCCCC1

>  <Assigned category>
t

$$$$
>  <Compound>
C/C(=N\OC(=O)c1c(-c2c(Cl)cccc2Cl)noc1C)c1ccccc1O

>  <Assigned category>
f

$$$$
>  <Compound>
CCOC(=O)COc1cc2c(cc1Cc1ccc(OC)cc1)OCO2

>  <Assigned category>
t

$$$$
>  <Compound>
OCC1NC(COC2OC(CO)C(O)C(O)C2O)C(O)C(O)C1O (stereo not drawn)

>  <Assigned category>
f

$$$$
>  <Compound>
Clc1ccc(C=Nc2ccccc2)c(Cl)c1

>  <Assigned category>
t

$$$$
>  <Compound>
CCCCCCCC/C=C\CCCCCCCC(=O)OC

>  <Assigned category>
t

$$$$
>  <Compound>
COc1cc(/C=C2/C(=O)N(C(=O)c3ccccc3O)N=C2C)ccc1O

>  <Assigned category>
f

$$$$

Req: Please indicate if the recorded growth inhibition for O=C(O)CCCCCCCCCCS(=O)(=O)CCO meets or exceeds -10%.
Resp: t
